- System: SF-268 CNS
- MEASUREMENT_DESCRIPTION: NCI-60 one-dose screen, 48 h (100 = growth as untreated, 0 = no growth, -100 = all killed)
- CONDITION_PARAMETERS: 10 µM unless noted
The panel holds about 83,000 compounds, 20% with a hit somewhere; the sample as a whole holds those more often. Calls of active or inactive are those of the source. How the source made its calls: active means growth percent below 10; inactive means the rest.
# growth per record follows

The cases that follow already have their growth on record.
Supply growth value. Item: COc1cc(NC(=O)CSc2nc3ccc(C)cc3c(=O)n2-c2ccccc2)cc(OC)c1OC 86.2% (inactive)

Please indicate growth recorded for CCOC(=O)CC/C(C)=N\Nc1ccc([N+](=O)[O-])cc1 73.5% (inactive)

State its growth for this compound: Cc1sc(N=Nc2ccc(N(C)C)cc2)[n+]([O-])c1C 95.7% (inactive)

Consider the additional compound presented here.
Return growth for the following compound: COc1ccc(-c2nnc(COc3ccc(NS(=O)(=O)c4ccc(OC)cc4)cc3F)o2)cc1 84.6% (inactive)

# credit: PubChem BioAssay (NCI)
